Values compiled from patent US10323038B2.

Target: FAAH (Mus musculus (Mouse))
Sequence (O08914 whole entry): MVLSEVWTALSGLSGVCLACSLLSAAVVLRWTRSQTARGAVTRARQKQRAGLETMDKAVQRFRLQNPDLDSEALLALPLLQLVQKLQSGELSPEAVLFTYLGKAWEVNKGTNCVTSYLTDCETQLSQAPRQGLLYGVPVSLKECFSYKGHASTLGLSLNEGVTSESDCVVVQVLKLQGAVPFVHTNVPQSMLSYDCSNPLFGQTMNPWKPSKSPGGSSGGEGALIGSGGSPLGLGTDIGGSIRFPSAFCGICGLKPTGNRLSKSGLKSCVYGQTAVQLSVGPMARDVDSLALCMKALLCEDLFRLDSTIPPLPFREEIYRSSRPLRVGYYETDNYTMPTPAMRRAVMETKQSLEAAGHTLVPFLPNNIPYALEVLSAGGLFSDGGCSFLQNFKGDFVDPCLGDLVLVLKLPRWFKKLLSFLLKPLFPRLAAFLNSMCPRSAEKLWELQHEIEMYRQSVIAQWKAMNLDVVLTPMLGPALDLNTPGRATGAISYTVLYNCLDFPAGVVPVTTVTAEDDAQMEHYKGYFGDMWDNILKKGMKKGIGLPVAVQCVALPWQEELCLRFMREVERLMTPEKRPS
Assay: In vitro competitive activity-based protein profiling, FAAH (mouse)
Assay type: biochemical
Conditions: 1 μM, read-out: FAAH % inh. 1 μM (mouse)
Protocol: In Vitro Competitive Activity-Based Protein Profiling. Proteomes (mouse brain membrane fraction or cell lysates for mouse assays; human prefrontal cortex or cell membrane fractions for human assays) (50 μL, 1.0 mg/mL total protein concentration) were preincubated with varying concentrations of inhibitors at 37° C. […] Following gel imaging, serine hydrolase activity was determined by measuring fluorescent intensity of gel bands corresponding to MAGL and FAAH using ImageJ 1.43u software.

COMPOUND_STRING | inhibition at 1 µM
CC(=O)N(C)c1cnn(C(=O)N2CCN(Cc3ccc(Cl)c(Cl)c3)CC2)c1 | ≥ 75%
COc1cccc(CN2CC3(CCN(C(=O)n4cc(N(C)C(C)=O)cn4)CC3)C2)c1 | 50 to 75%
CS(=O)(=O)Nc1cnn(C(=O)N2CCN(Cc3ccc(-c4ccccc4)cc3OCc3ccccc3)CC2)c1 | 50 to 75%
CC(=O)N(C)c1cnn(C(=O)N2C[C@H]3C[C@H](NCc4ccc(Cl)cc4)C[C@H]3C2)c1 | ≥ 75%
